# Tested on: mu opiate receptor (MOR)
# Assay Remarks: MOR agonist activity using [35S]GTPγS binding assay in striatal membranes
# Type: biochemical
# Condition Notes: Series B; 0.1 μM compound, relative to DAMGO
Recorded % DAMGO (0.1 μM) values for a group of compounds are listed next.
Express your answer in %, writing the number without its unit.

Example cases with answers are listed next.
| Compound | % DAMGO (0.1 μM) (%) |
| --- | --- |
| COc1c2c(cc3c1C(CC(=O)Cc1ccc(Br)cc1)[N+](C)(C)CC3)OCO2 (stereo not shown) | 95.7 |
| COc1cccc(OC)c1CC(=O)CC1c2c(cc3c(c2OC)OCO3)CC[N+]1(C)C (stereo not shown) | 39.2 |
| COc1c2c(cc3c1C(CC(=O)CCc1ccc(O)cc1)[N+](C)(C)CC3)OCO2 (stereo not shown) | 103.5 |

Below: the item to evaluate.
Data request, read-out % DAMGO (0.1 μM), for CCOc1ccc(C(=O)CC2c3c(cc4c(c3OC)OCO4)CC[N+]2(C)C)cc1F (stereo not shown)
30.1

----------
# System: mu opiate receptor (MOR)
# Assay Remarks: MOR agonist activity using [35S]GTPγS binding assay in striatal membranes
# Assay type: biochemical
# Condition Notes: Series B; 1 μM compound + 1 μM β-FNA
# Experimental: To assess the mu opiate receptor (MOR) agonist activity of positive compounds from the FLNA screening, compounds were tested in a [^35S]GTPγS binding assay using striatal membranes. […] The immunocomplexes so formed were collected by incubation at 25° C. for 30 minutes with 40 μl of agarose-conjugated protein A/G beads and centrifugation at 5,000×g at 4° C. for 5 minutes. […] The radioactivity in the suspension was determined by liquid scintillation spectrometry.
Attribute Measured: MOR agonist activity, percent [35S]GTPγS binding at the stated compound concentration
Numeric answer plus unit only.

Observe how each entry below is paired with its result.
| Compound | Tested System | Observed |
| --- | --- | --- |
| COc1c2c(cc3c1C(CC(=O)c1ccncc1)[N+](C)(C)CC3)OCO2 (stereo not shown) | mu opiate receptor (MOR) | 45.1% |
| COc1cccc(CCC(=O)CC2c3c(cc4c(c3OC)OCO4)CC[N+]2(C)C)c1 (stereo not shown) | mu opiate receptor (MOR) | 41.8% |
| COc1ccc(CCC(O)CC2c3c(cc4c(c3OC)OCO4)CC[N+]2(C)C)cc1 (stereo not shown) | mu opiate receptor (MOR) | 133.2% |

Read the next record carefully.
Could you share which MOR agonist activity, percent [35S]GTPγS binding at the stated compound concentration value was measured for COc1ccc(C(=O)CC2c3c(cc4c(c3OC)OCO4)CC[N+]2(C)C)c(O)c1 (stereo not shown) ?
41.9%

----------
# Tested System: FLNA pentapeptide of SEQ ID NO: 1 (Bn-VAKGL) (Homo sapiens, UniProt P21333)
# Assay Remarks: FITC-NLX-based FLNA screening assay (inhibition of FITC-naloxone binding to Bn-VAKGL on streptavidin plates)
# Condition Notes: FLNA-binding compound 0.01 μM; 10 nM FITC-NLX; read-out: Percent Binding Inhibition
Each record here notes measured inhibition at 0.01 µM.
Please give a number only; it is taken to be in %.

Some solved cases for reference:
| Compound | inhibition at 0.01 µM, % |
| --- | --- |
| CC(=O)c1ccc(OCC(O)CN2CC(C)OC(C)C2)cc1 (stereo not drawn) | 32.4 |
| CC1CCC(C(C)C)C(OCC(O)CN2CCCC2=O)C1 (stereo not drawn) | 40.3 |
| CC(=O)c1ccc(S(=O)(=O)N2CCC3(CC2)OCCN3S(C)(=O)=O)cc1 | 33.7 |

The record that follows has no inhibition at 0.01 µM shown yet.
What measured inhibition at 0.01 µM goes with CC1CCN(CC(O)COC2CC(C)CCC2C(C)C)CC1 (stereo not drawn) ?
37.9

----------
# Concentration of FLNA-Binding Compound as Agonist 0.1 μM listing for each entry below
# System: mu opiate receptor (MOR)
# Assay Remarks: MOR agonist activity using [35S]GTPγS binding assay in striatal membranes
# Type: biochemical
# Condition Notes: Series C-1; 0.1 μM compound; [35S]GTPγS binding to Gαo, striatal membranes
Note: unit % is implicit; provide only the numeric part.

Worked cases, Concentration of FLNA-Binding Compound as Agonist 0.1 μM given:
| Compound | Observed |
| --- | --- |
| C[C@@H](NC(=O)[C@@H](N)Cc1ccc(O)cc1)C(=O)NCC(=O)N(C)[C@@H](Cc1ccccc1)C(=O)NCCO [DAMGO, [D-Ala2, N-MePhe4, Gly-ol]-enkephalin, reference compound] | 168.5 |
| COC(=O)c1ccc(S(=O)(=O)N2CCC3(CC2)OCCN3S(=O)(=O)c2ccc(C(=O)OC)cc2)cc1 | 93.9 |
| CCCCc1ccc(S(=O)(=O)N2CCC3(CC2)OCCN3S(=O)(=O)c2ccc(CCCC)cc2)cc1 | 150.3 |
| COc1cccc(S(=O)(=O)N2CCC3(CC2)OCCN3S(=O)(=O)c2cccc(OC)c2)c1 | 88.4 |
| Cc1ccc(S(=O)(=O)N2CCC3(CC2)OCCN3S(=O)(=O)c2ccc(C)cc2)cc1 | 129.3 |

# returns recorded Concentration of FLNA-Binding Compound as Agonist 0.1 μM (system: mu opiate receptor (MOR)) for COc1ccc(C(=O)N2CCOC23CCN(S(=O)(=O)c2ccc(OC)cc2)CC3)cc1
104.4

----------
Reported % DAMGO (0.1 μM) is given for each of the following compounds.
# Tested on: mu opiate receptor (MOR)
# Assay Remarks: MOR agonist activity using [35S]GTPγS binding assay in striatal membranes
# Format: biochemical
# Condition Notes: Series C-1; 0.1 μM compound, relative to DAMGO
Your answer is read as %, so omit the unit and give the number.

Previously resolved entries follow.
| Compound | % DAMGO (0.1 μM), % |
| --- | --- |
| O=S(=O)(c1ccc(-c2ccccc2)cc1)N1CCC2(CC1)OCCN2S(=O)(=O)c1ccc(-c2ccccc2)cc1 | 80.7 |
| CC(=O)c1ccc(C(=O)N2CCOC23CCN(S(=O)(=O)c2ccc(C(C)=O)cc2)CC3)cc1 | 71.7 |
| O=C(c1ccc([N+](=O)[O-])cc1)N1CCC2(CC1)OCCN2S(=O)(=O)c1ccc([N+](=O)[O-])cc1 [Compound C0033] | 85.9 |

// lookup % DAMGO (0.1 μM) for O=C1CN(Cc2ccccc2)C2(CCN(S(=O)(=O)c3cc(Cl)cc(Cl)c3O)CC2)N1 [Compound C0138M]
86.3

% DAMGO (0.1 μM) lookup needed for COc1cc(S(=O)(=O)N2CCC3(CC2)OCCN3S(=O)(=O)c2cc(OC)c(OC)c(OC)c2)cc(OC)c1OC , thanks.
81.9

I have this compound here, COc1ccc(S(=O)(=O)N2CCC3(CC2)OCCN3S(=O)(=O)c2ccc(OC)cc2)cc1 , and I need its recorded % DAMGO (0.1 μM).
79.3

What measured % DAMGO (0.1 μM) goes with O=S(=O)(c1csc2ccccc12)N1CCC2(CC1)OCCN2S(=O)(=O)c1csc2ccccc12 [Compound C0150M] ?
97.2

----------
# Tested System: UniProt:P21333
# Assay Remarks: FITC-NLX-based FLNA screening assay (inhibition of FITC-naloxone binding to Bn-VAKGL on streptavidin plates)
# Condition Notes: read-out: Percent Binding Inhibition, FLNA-binding compound 1 μM; 10 nM FITC-NLX
# maps each entry to its inhibition at 1 µM
Report as a plain number; the unit % is understood.

| Molecule | Observed |
| --- | --- |
| COc1ccc(OCC(O)CN2CCc3ccccc3C2)cc1 (stereo not shown) [Compound A0053] | 46.9 |
| O=S(=O)(c1ccc(Br)c(C(F)(F)F)c1)N1CCC2(CC1)OCCN2S(=O)(=O)c1ccc(Br)c(C(F)(F)F)c1 [Compound C0077] | 51 |
| COc1c2c(cc3c1C(CC(=O)CCc1ccc(F)cc1)[N+](C)(C)CC3)OCO2 (stereo not shown) [Compound B0018] | 47.6 |

Here is another molecule to look at.
Under UniProt:P21333: inhibition at 1 µM value of O=S(=O)(c1ccc(C(F)(F)F)cc1)N1CCC2(CC1)OCCN2S(=O)(=O)c1ccc(C(F)(F)F)cc1 [Compound C0012] ?
46.4

----------
# % DAMGO (1 μM) listing for each entry below
# Tested on: mu opiate receptor (MOR)
# Assay Remarks: MOR agonist activity using [35S]GTPγS binding assay in striatal membranes
# Assay type: biochemical
# Condition Notes: Series C-1; 1 μM compound, relative to DAMGO
Use % as the unit, but write only the number.

| Compound | Tested System | Attribute Measured | Units Label | Observed |
| --- | --- | --- | --- | --- |
| COc1ccc(S(=O)(=O)N2CCC3(OCCN3S(=O)(=O)c3ccc(OC)cc3)C3CCCCC32)cc1 (centres unmarked) [Compound C0144M] | mu opiate receptor (MOR) | % DAMGO (1 μM) | % | 90.8 |
| CC(=O)c1ccc(C(=O)N2CCC3(CC2)OCCN3S(=O)(=O)c2ccc(C(C)=O)cc2)cc1 | mu opiate receptor (MOR) | % DAMGO (1 μM) | % | 69.9 |
| CC(O)c1ccc(S(=O)(=O)N2CCC3(CC2)OCCN3S(=O)(=O)c2ccc(C(C)O)cc2)cc1 (centres unmarked) | mu opiate receptor (MOR) | % DAMGO (1 μM) | % | 73.1 |
| Cc1ccc(S(=O)(=O)N2CCC3(CC2)OCCN3S(=O)(=O)c2ccc(C)cc2)cc1 | mu opiate receptor (MOR) | % DAMGO (1 μM) | % | 66.6 |
| O=S(=O)(c1ccc(Br)cc1)N1CCC2(CC1)OCCN2S(=O)(=O)c1ccc(Br)cc1 | mu opiate receptor (MOR) | % DAMGO (1 μM) | % | 117.5 |
| O=C(OCc1ccccc1)c1ccc(S(=O)(=O)N2CCC3(CC2)OCCN3S(=O)(=O)c2ccc(C(=O)OCc3ccccc3)cc2)cc1 | mu opiate receptor (MOR) | % DAMGO (1 μM) | % | 119.2 |
| CC(=O)c1ccc(S(=O)(=O)N2CCC3(CC2)OCC(CCCCN(C)C)N3S(=O)(=O)c2ccc(C(C)=O)cc2)cc1 (centres unmarked) | mu opiate receptor (MOR) | % DAMGO (1 μM) | % | 92.4 |
| O=C(c1ccc([N+](=O)[O-])cc1)N1CCC2(CC1)OCCN2S(=O)(=O)c1ccc([N+](=O)[O-])cc1 [Compound C0022] | mu opiate receptor (MOR) | % DAMGO (1 μM) | % | 123.2 |

Can you look up the measured % DAMGO (1 μM) of COc1cccc(S(=O)(=O)N2CCC3(CC2)OCCN3S(=O)(=O)c2cccc(OC)c2)c1 for me?
33.9

I am curious: what % DAMGO (1 μM) value has been reported for CC(=O)c1ccc(S(=O)(=O)N2CCC3(CC2)OCCN3S(=O)(=O)c2ccc(C(C)=O)cc2)cc1 ?
114.3

Look up % DAMGO (1 μM) for this compound: O=S(=O)(c1cccc(OC(F)(F)F)c1)N1CCC2(CC1)OCCN2S(=O)(=O)c1cccc(OC(F)(F)F)c1
85.1
